Each entry below lists one item and its recorded Papp A→B at 2 h, 3 µM value.
- ASSAY_OVERVIEW: Apparent permeability across apical to basolateral side in human Caco-2 cells at 3 uM incubated for 2 hrs by LC-MS/MS analysis
- Format: ADME, cell-based
Could you kindly put the unit after your number?

Cc1ccc(-c2cc(=O)oc3cc(O[C@H](C)C(=O)N4CC5CCC(C4)N5C)ccc23)c(C)c1	6.93 ×10⁻⁶ cm/s

Proceeding to the next molecule to report its Papp A→B at 2 h, 3 µM.
Task: Entry Nc1cc(N2CCCCC2)nc(N)[n+]1[O-] : reported Papp A→B at 2 h, 3 µM = ?
Output: 6.79 ×10⁻⁶ cm/s
